Task for the reader: assign each of the following compounds its reported IC50.
Tested on: SHIV
Assay: Phenoscreen viral entry inhibition assay, SHIV
Type: cell-based

# lookup: IC50 of CC(Nc1ccccc1)c1ccc(C(C)Nc2ccccc2)cc1 (stereo not shown) [WZ-8225]
~10 µM

Another: c1ccc(NCc2ccc(CNc3ncccn3)cc2)cc1 [WZ-67]
~10 µM

Here is the next compound: COc1ccnc(NCc2ccc(CNc3nccc(OC)n3)cc2)n1 [WZ-72-S]
4.44 µM

Another compound to look at: c1ccc(NCc2cccc(CNc3ccccn3)c2)nc1 [WZ-48-S]
~11 µM

---

Would you mind telling me the reported IC50 of each entry?
Target: CXCR4 (Homo sapiens)
Sequence (P61073 whole entry): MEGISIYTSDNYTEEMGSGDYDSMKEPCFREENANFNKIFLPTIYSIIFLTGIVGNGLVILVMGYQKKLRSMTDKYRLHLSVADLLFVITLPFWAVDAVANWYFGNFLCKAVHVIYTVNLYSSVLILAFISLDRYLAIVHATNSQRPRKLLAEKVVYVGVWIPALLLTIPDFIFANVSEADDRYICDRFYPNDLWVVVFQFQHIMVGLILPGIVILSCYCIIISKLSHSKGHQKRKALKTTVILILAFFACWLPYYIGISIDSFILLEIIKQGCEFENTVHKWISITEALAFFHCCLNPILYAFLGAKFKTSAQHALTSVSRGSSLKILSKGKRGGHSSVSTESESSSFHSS
Experiment: Competition screening using the native CXCR4 ligand SDF-1
Type: binding
Settings: competition with SDF-1

Return IC50 measured with CXCR4 (Homo sapiens) given this compound: c1cnc(NCc2ccc(CNc3ncccn3)cc2)nc1 [drawing 205]
< 10 nM

Then what about the compound Fc1ccccc1NCc1ccc(CNc2ccccc2F)cc1 [drawing 213] ?
< 10 nM

Then what about the compound COc1ccnc(NCc2ccc(CNc3nccc(OC)n3)cc2)n1 [drawing 215] ?
10 nM

Can you handle c1ccc(CNCc2ccc(CNCc3ccccc3)cc2)cc1 [drawing 210] next?
< 100 nM

Again, but for CC(Nc1ccccc1)c1ccc(C(C)Nc2ccccc2)cc1 (centres unmarked) [drawing 211]
< 100 nM

Quick one: COc1cccc(NCc2ccc(CNc3cccc(OC)c3)cc2)c1 [drawing 216]
1 nM

Thanks! And c1ccc(NCc2cccc(CNc3ccccc3)c2)cc1 [drawing 209] ?
< 10 nM

Same question, c1ccc(NCc2ccc(CNc3ccccc3)cc2)cc1 [drawing 208] this time
< 10 nM

Quick one: OCc1ccc(CNc2ncccn2)cc1 [drawing 206]
< 10 nM

What about Cc1cc(CNc2ccccc2)c(C)cc1CNc1ccccc1 [drawing 212] ?
> 100 nM

Again, but for c1ccc(NCc2ccc(CNc3ccccn3)cc2)nc1 [drawing 204]
< 10 nM
